- Tested on: ATP;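 also: ATP exposure 15 min at 22 °C before imaging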
- method-notes: switch fluorescence ratio, 500 uM ATP over buffer (Cy3 cluster intensity, sum of 5 cycles each) (fold (ratio)); higher = stronger signal-on switching upon ATP binding; sequences stand for … in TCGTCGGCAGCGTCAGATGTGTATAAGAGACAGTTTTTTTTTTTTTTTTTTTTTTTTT…TC
- settings: aptamer strand: ATP DNA aptamer (quencher-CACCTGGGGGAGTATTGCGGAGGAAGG + anchor), 100 nM annealed; ATP concentration: 500 uM
quantity-name: switch fluorescence ratio

{"seq-string": "AGACTGCCTG", "result": 0.971}
{"seq-string": "CAGCGTATTT", "result": 1.03}
{"seq-string": "TTATATCGGG", "result": 0.995}
{"seq-string": "TTAGGTTTTG", "result": 1.02}
{"seq-string": "TGGATTTTGG", "result": 0.98}
{"seq-string": "GGGATTTTTT", "result": 1.06}
{"seq-string": "TTAAGAAGCG", "result": 1.01}
{"seq-string": "TGATTCTAGC", "result": 0.972}
{"seq-string": "AAGAGTATAA", "result": 0.985}
{"seq-string": "GATTCAGGGG", "result": 1.04}
{"seq-string": "AGAAGTACTA", "result": 1.22}
{"seq-string": "TCGCCTTTGG", "result": 1.07}
{"seq-string": "ATAGTAAGTA", "result": 0.996}
{"seq-string": "GACATGGGGA", "result": 1.06}
{"seq-string": "ATGGGTAAGG", "result": 0.983}
{"seq-string": "GGAATAGGAG", "result": 1.04}
{"seq-string": "CTCTTGGGCT", "result": 0.971}
{"seq-string": "ATAAACTTGG", "result": 1.01}
{"seq-string": "AATGTGGTCT", "result": 0.994}
{"seq-string": "TTTCTGTTGC", "result": 0.989}
{"seq-string": "GCGGGATTAT", "result": 1.01}
{"seq-string": "TCTCTGAATC", "result": 1.24}
{"seq-string": "TGGTTCAGAG", "result": 0.969}
{"seq-string": "GAATGGGGTA", "result": 1.01}
{"seq-string": "GATGTTAGGA", "result": 0.978}
{"seq-string": "GGTCTATTTT", "result": 0.986}
{"seq-string": "GCCGGGATAG", "result": 1.23}
{"seq-string": "AAATGGGACT", "result": 1.03}
{"seq-string": "GGGTACTCGC", "result": 1.03}
{"seq-string": "CAATGGGGGT", "result": 1}
{"seq-string": "TTTTAAGAAA", "result": 3.11}
{"seq-string": "ACTGAGGATG", "result": 1.06}
{"seq-string": "GCGCGGAACG", "result": 0.998}
{"seq-string": "TTTTTTCGCG", "result": 1}
{"seq-string": "CCATAAACTA", "result": 1.01}
{"seq-string": "GAAGGGGGAG", "result": 0.996}

###

- Tested on: ATP;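 also: ATP exposure 15 min at 22 °C before imaging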
- method-notes: switch fluorescence ratio, 500 uM ATP over buffer (Cy3 cluster intensity, sum of 5 cycles each) (fold (ratio)); higher = stronger signal-on switching upon ATP binding; sequences stand for … in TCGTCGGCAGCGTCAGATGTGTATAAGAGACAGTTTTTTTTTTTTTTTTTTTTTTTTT…TC
- settings: aptamer strand: ATP DNA aptamer (quencher-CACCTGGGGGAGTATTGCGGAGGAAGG + anchor), 100 nM annealed; ATP concentration: 500 uM
Listed sequences paired with reported switch fluorescence ratio

{"seq-string": "GCGAAAGTTT", "switch fluorescence ratio": 1.01}
{"seq-string": "GGACTTCTGG", "switch fluorescence ratio": 0.998}
{"seq-string": "ATTGCGGTTT", "switch fluorescence ratio": 0.991}
{"seq-string": "TTAAAAAACT", "switch fluorescence ratio": 1.02}
{"seq-string": "GGGTTATGGA", "switch fluorescence ratio": 0.971}
{"seq-string": "CGTTGGTTCA", "switch fluorescence ratio": 1}
{"seq-string": "GACGTATTGC", "switch fluorescence ratio": 1.27}
{"seq-string": "TTTTGGCCGG", "switch fluorescence ratio": 1.05}
{"seq-string": "CTGGGAGGGT", "switch fluorescence ratio": 0.998}
{"seq-string": "TTAGCGAGGT", "switch fluorescence ratio": 1.02}
{"seq-string": "AAATCCTTGT", "switch fluorescence ratio": 0.992}
{"seq-string": "CCTTTTTTTG", "switch fluorescence ratio": 1.01}
{"seq-string": "ACGATAGGTA", "switch fluorescence ratio": 1.06}
{"seq-string": "GTGTAGATTA", "switch fluorescence ratio": 1.02}
{"seq-string": "CCAAGGGGTT", "switch fluorescence ratio": 1.01}
{"seq-string": "GTGGTATGGT", "switch fluorescence ratio": 1.02}
{"seq-string": "CAATGCAGCA", "switch fluorescence ratio": 0.976}
{"seq-string": "TGTATGTTAG", "switch fluorescence ratio": 0.948}
{"seq-string": "CTTGCATGGC", "switch fluorescence ratio": 1.08}
{"seq-string": "TGAAATGGGG", "switch fluorescence ratio": 0.98}
{"seq-string": "TGTTACTACG", "switch fluorescence ratio": 1.05}
{"seq-string": "ATATTGGGGC", "switch fluorescence ratio": 0.993}
{"seq-string": "ATGATGGGT", "switch fluorescence ratio": 1.01}
{"seq-string": "GGGGAAGGG", "switch fluorescence ratio": 1.12}
{"seq-string": "ATAGTTTTCC", "switch fluorescence ratio": 1}
{"seq-string": "TTTCGGGCTG", "switch fluorescence ratio": 0.984}
{"seq-string": "ATGGGTATCT", "switch fluorescence ratio": 0.994}
{"seq-string": "TTGGTTCTCT", "switch fluorescence ratio": 1.01}
{"seq-string": "TTTGCTTA", "switch fluorescence ratio": 0.995}
{"seq-string": "CGCATCAAGT", "switch fluorescence ratio": 1.01}
{"seq-string": "CGTTAGCTTT", "switch fluorescence ratio": 1.02}
{"seq-string": "AAAATGATGG", "switch fluorescence ratio": 1}
{"seq-string": "CATATATCGG", "switch fluorescence ratio": 1.02}
{"seq-string": "TGGCGGGGCA", "switch fluorescence ratio": 0.998}
{"seq-string": "CCCCTTGCTC", "switch fluorescence ratio": 1.47}
{"seq-string": "TTTTTGCATT", "switch fluorescence ratio": 1.04}
{"seq-string": "GCCAACCACT", "switch fluorescence ratio": 1.03}
{"seq-string": "CAAGTGAGGG", "switch fluorescence ratio": 1.04}
{"seq-string": "AAACGGGCAG", "switch fluorescence ratio": 0.985}
{"seq-string": "GCGATTTTTG", "switch fluorescence ratio": 0.986}
{"seq-string": "TATTGTGTTT", "switch fluorescence ratio": 0.978}
{"seq-string": "AAAATTTACG", "switch fluorescence ratio": 1.1}
{"seq-string": "ACGTCAAGGG", "switch fluorescence ratio": 1.1}
{"seq-string": "GGTTTTTGTC", "switch fluorescence ratio": 1.01}
{"seq-string": "TAATAAAGTT", "switch fluorescence ratio": 1.02}
{"seq-string": "ATCATAGGAT", "switch fluorescence ratio": 1.03}
{"seq-string": "CTGATTTTCC", "switch fluorescence ratio": 1.01}
{"seq-string": "TTCCGGTTGT", "switch fluorescence ratio": 1.03}
{"seq-string": "TGAGGTAAGG", "switch fluorescence ratio": 0.997}
{"seq-string": "GCGGGGAGGT", "switch fluorescence ratio": 1.01}
{"seq-string": "ATTAAAGGTC", "switch fluorescence ratio": 1}
{"seq-string": "TTAGTTACGG", "switch fluorescence ratio": 0.999}
{"seq-string": "TGTTCGCATG", "switch fluorescence ratio": 1.08}
{"seq-string": "ATCAGGGGGA", "switch fluorescence ratio": 0.997}
{"seq-string": "GGTGAAAAGC", "switch fluorescence ratio": 1.02}
{"seq-string": "TAGAATCGGG", "switch fluorescence ratio": 0.976}
{"seq-string": "GTGGTTAGGT", "switch fluorescence ratio": 1}
{"seq-string": "GGTAAAGACG", "switch fluorescence ratio": 0.992}
{"seq-string": "AGCATGGCTT", "switch fluorescence ratio": 1.04}
{"seq-string": "GTGGGTCAGG", "switch fluorescence ratio": 1.01}
{"seq-string": "CAGTTGATGC", "switch fluorescence ratio": 1.01}
{"seq-string": "GGTGAGGGTG", "switch fluorescence ratio": 1.1}
{"seq-string": "GAGGAAAGCG", "switch fluorescence ratio": 1.04}
{"seq-string": "GATCAAGGCA", "switch fluorescence ratio": 1.02}
{"seq-string": "TTCATAATGT", "switch fluorescence ratio": 0.963}
{"seq-string": "ATTCATTCAG", "switch fluorescence ratio": 0.987}
{"seq-string": "TTCTAAGGTA", "switch fluorescence ratio": 0.993}
{"seq-string": "TTTTACAAGT", "switch fluorescence ratio": 0.982}
{"seq-string": "CGCGTGAAGA", "switch fluorescence ratio": 1.12}
{"seq-string": "ACGCTGTTGG", "switch fluorescence ratio": 1.01}
{"seq-string": "TAGGGGGGGC", "switch fluorescence ratio": 0.978}
{"seq-string": "AAAAGTGGGG", "switch fluorescence ratio": 1.02}
{"seq-string": "AGGGGGGAAT", "switch fluorescence ratio": 1.03}
{"seq-string": "AATGTGGGGT", "switch fluorescence ratio": 0.995}
{"seq-string": "TAATTTATTT", "switch fluorescence ratio": 1.03}
{"seq-string": "ATTTGTGGGG", "switch fluorescence ratio": 1.01}
{"seq-string": "GCGGATTTGT", "switch fluorescence ratio": 0.998}
{"seq-string": "TTGTTCAAAA", "switch fluorescence ratio": 1.03}
{"seq-string": "AATGTGGGCC", "switch fluorescence ratio": 1.02}
{"seq-string": "TATTAAGAAA", "switch fluorescence ratio": 0.962}
{"seq-string": "GTTGTTTAGG", "switch fluorescence ratio": 0.953}
{"seq-string": "TTGAGGAATG", "switch fluorescence ratio": 1.02}
